Can you tell me hERG current change (%, negative = inhibition) at 10uM for the items I'm about to list?
target: human ether-à-go-go-related gene (hERG) potassium channel (human); experiment: primary screen, population patch clamp on CHO cells stably expressing hERG; higher = less effect of the substance;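 further: peak tail current of the secondary pulse compared with the same well before compound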
Sequence (Q12809 whole entry, looked up): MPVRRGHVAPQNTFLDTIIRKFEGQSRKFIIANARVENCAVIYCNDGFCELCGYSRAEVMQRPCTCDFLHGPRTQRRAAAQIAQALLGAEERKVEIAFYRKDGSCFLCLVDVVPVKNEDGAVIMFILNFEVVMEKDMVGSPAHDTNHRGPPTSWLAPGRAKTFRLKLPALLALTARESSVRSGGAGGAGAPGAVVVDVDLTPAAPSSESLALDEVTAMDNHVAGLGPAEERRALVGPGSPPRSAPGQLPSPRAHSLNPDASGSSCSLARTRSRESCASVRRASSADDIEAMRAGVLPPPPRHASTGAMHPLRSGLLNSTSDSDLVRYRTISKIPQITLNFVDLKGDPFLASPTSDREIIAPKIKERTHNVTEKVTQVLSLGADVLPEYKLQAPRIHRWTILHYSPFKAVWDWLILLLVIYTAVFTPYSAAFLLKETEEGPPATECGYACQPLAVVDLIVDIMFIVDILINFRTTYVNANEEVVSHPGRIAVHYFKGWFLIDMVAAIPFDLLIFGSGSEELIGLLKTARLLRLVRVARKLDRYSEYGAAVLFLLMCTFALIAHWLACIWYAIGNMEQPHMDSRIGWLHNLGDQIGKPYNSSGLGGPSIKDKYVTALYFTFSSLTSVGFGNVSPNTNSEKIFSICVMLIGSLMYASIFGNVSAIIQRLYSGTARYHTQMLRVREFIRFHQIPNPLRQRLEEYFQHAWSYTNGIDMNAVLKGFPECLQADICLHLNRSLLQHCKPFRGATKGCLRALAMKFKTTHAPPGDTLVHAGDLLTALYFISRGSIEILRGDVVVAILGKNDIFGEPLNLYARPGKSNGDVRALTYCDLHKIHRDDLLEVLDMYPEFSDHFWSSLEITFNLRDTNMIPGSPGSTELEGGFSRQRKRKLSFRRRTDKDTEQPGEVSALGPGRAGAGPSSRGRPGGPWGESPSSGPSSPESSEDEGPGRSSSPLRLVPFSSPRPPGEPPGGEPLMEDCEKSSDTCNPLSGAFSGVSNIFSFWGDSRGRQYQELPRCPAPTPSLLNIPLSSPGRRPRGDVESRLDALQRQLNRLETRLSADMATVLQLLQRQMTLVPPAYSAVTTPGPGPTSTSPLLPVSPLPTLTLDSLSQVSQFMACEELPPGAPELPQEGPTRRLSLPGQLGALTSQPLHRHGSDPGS
In all, about 310,000 compounds went through this assay and about 14,000 (4.5%) showed an effect of 50% or more. Effects have a minus sign here. For the sample, strong results were picked, then their nearest neighbours and some compounds at random.
Your reply should be a number followed by the unit it is expressed in.

Query string: Consider the compound O=C(NCCO)c1ccc(Oc2ccc(C(F)(F)F)cc2[N+](=O)[O-])cc1 . State its measured hERG current change (%, negative = inhibition) at 10uM.
Result string: -0.131%

Query string: Answer with the recorded hERG current change (%, negative = inhibition) at 10uM for the compound listed here: CCOC(=O)N1CCN(C(=O)/C(=C\c2ccc(SC)cc2)NC(=O)c2ccccc2)CC1
Result string: -78.5%

Query string: Supply reported hERG current change (%, negative = inhibition) at 10uM belonging to this compound: Cc1ccc(CN2CCN(Cc3ccc4cccc(F)c4n3)CC2CCO)cc1 (centres unmarked)
Result string: -68.6%

Query string: Return value of hERG current change (%, negative = inhibition) at 10uM for input CCCNC(=O)OC[C@H]1O[C@H](CCO/N=C/C[C@@H]2C=C[C@H](OC(C)=O)[C@@H](COC(C)=O)O2)C=C[C@@H]1Oc1ccc(OC)cc1 , no commentary.
Result string: -59.7%

Query string: Please report hERG current change (%, negative = inhibition) at 10uM for the following compound: OCCC1CN(Cc2ccc3cccc(F)c3n2)CCN1Cc1ccccc1 (centres unmarked)
Result string: -15.6%

Query string: Provide one value: measured hERG current change (%, negative = inhibition) at 10uM of CCC(C)NC(=O)C1CCC(CNS(=O)(=O)c2ccc3c(c2)N(C(C)=O)CCO3)CC1 (centres unmarked)
Result string: 6.84%

Query string: In one line, give reported hERG current change (%, negative = inhibition) at 10uM of the entry COc1ccc(-n2nnnc2CNC(=O)C(=O)c2c[nH]c3ccccc23)cc1 .
Result string: 6.27%

Query string: Complete the entry with hERG current change (%, negative = inhibition) at 10uM for CC(C)Cn1c(CN2CCN(C)C(CCO)C2)nc2ccccc21 (centres unmarked)
Result string: 4.02%

Query string: Read off the recorded hERG current change (%, negative = inhibition) at 10uM for CCOC(=O)N1CCN(CCCc2ccccc2)CC1
Result string: -6.26%

Query string: Supply hERG current change (%, negative = inhibition) at 10uM value. Item: COc1ccc(S(=O)(=O)N2CCOCC2)cc1NC(=O)CC1CCCC1
Result string: -6.2%

Query string: Tell me hERG current change (%, negative = inhibition) at 10uM reported for O=C(C1CCN(S(=O)(=O)c2ccc(F)cc2)CC1)N1CCOCC1
Result string: 15.3%

Query string: # return recorded hERG current change (%, negative = inhibition) at 10uM for input Cc1ccccc1CN1CCN(Cc2ccc3cccc(F)c3n2)CC1CCO (centres unmarked)
Result string: -32.7%

Query string: Fill in reported hERG current change (%, negative = inhibition) at 10uM for this entry: COc1ccc(C(=O)N2CCN(Cc3ccccc3[N+](=O)[O-])CC2)cc1.O=C(O)C(=O)O
Result string: -58.9%

Query string: Write down hERG current change (%, negative = inhibition) at 10uM measured for item COc1cc(OC)cc(C(=O)N2CCN(Cc3ccccc3[N+](=O)[O-])CC2)c1.O=C(O)C(=O)O
Result string: -46.5%

Query string: For O=C(COc1ccc(NC(=O)c2ccccc2[N+](=O)[O-])cc1)c1ccc(F)cc1 , write its hERG current change (%, negative = inhibition) at 10uM.
Result string: 2.93%

Query string: Report measured hERG current change (%, negative = inhibition) at 10uM; entry is COCCNC(=S)N(Cc1cccnc1)Cc1ccc(OC)c(OC)c1.O=C(O)C(=O)O
Result string: 9.52%

Query string: State its hERG current change (%, negative = inhibition) at 10uM: O=C(Cc1ccccc1[N+](=O)[O-])NC1CCN(Cc2ccccc2)CC1
Result string: -1.68%

Query string: Respond only with hERG current change (%, negative = inhibition) at 10uM recorded for Cc1c(NC(=O)CSc2nnnn2-c2ccc(O)cc2)c(=O)n(-c2ccccc2)n1C
Result string: -7.29%

Query string: State its hERG current change (%, negative = inhibition) at 10uM for this compound: CN(Cc1ccccc1)C1CCN(Cc2ccccc2[N+](=O)[O-])CC1.O=C(O)C(=O)O
Result string: -59.6%

Query string: Give the measured hERG current change (%, negative = inhibition) at 10uM for c1ccc(CCCN2CCN(c3ccccn3)CC2)cc1
Result string: -51.7%

Query string: Provide measured hERG current change (%, negative = inhibition) at 10uM value, entry: O=C(c1cccs1)N1CCN(Cc2ccccc2[N+](=O)[O-])CC1
Result string: -17.7%

Query string: Quote hERG current change (%, negative = inhibition) at 10uM reported for O=C(C1CCCN(Cc2ccccc2[N+](=O)[O-])C1)N1CCCC1.O=C(O)C(=O)O (centres unmarked) please.
Result string: 11.4%

Query string: Return the recorded hERG current change (%, negative = inhibition) at 10uM value; entry: COC(=O)CCC(=O)NC1CC(C)(C)Cc2c1cnn2-c1ccc(F)cc1 (centres unmarked)
Result string: 4.42%

Query string: Entry COC(=O)COc1ccc(C(C2C(=O)CC(C)(C)CC2=O)C2C(=O)CC(C)(C)CC2=O)cc1 needs its hERG current change (%, negative = inhibition) at 10uM filled in; supply it.
Result string: 15.8%

Query string: Answer with the recorded hERG current change (%, negative = inhibition) at 10uM for the compound listed here: O=C(CCc1ccccc1)N1CCN(c2ccccn2)CC1
Result string: -9.9%

Query string: Provide measured hERG current change (%, negative = inhibition) at 10uM value, entry: CCn1c(=S)sc2c(=O)n(CC(=O)Nc3cccc(Cl)c3)c(C)nc21
Result string: 6.27%

Query string: Give hERG current change (%, negative = inhibition) at 10uM for the following compound: CCn1c(CNC(=O)COc2ccc(C(C)C)cc2)nnc1SCC(=O)Nc1ccccc1
Result string: -54.2%

Query string: Give me measured hERG current change (%, negative = inhibition) at 10uM, please, for this compound: CCOC(=O)C1SC2(C(F)(F)C(F)F)CC1(O)c1c(c(OC)c3occc3c1OC)O2 (centres unmarked)
Result string: -3.47%

Query string: Report hERG current change (%, negative = inhibition) at 10uM for COc1cccc(C(=O)N2CCN(Cc3ccccc3[N+](=O)[O-])CC2)c1
Result string: -14.5%

Query string: Please look at this compound and report its hERG current change (%, negative = inhibition) at 10uM: Cc1ccc(CN2CCc3[nH]c(=O)[nH]c(=O)c3C2)cc1
Result string: 17.5%

Query string: Tell me its hERG current change (%, negative = inhibition) at 10uM given CC1(C)Cc2c(cnn2-c2ccc(F)cc2)C(NC(=O)CCC(F)(F)F)C1 (centres unmarked) as the entry.
Result string: -42.8%

Query string: Using known records, supply hERG current change (%, negative = inhibition) at 10uM for NCCCN1CCN(c2ccccc2)CC1
Result string: -8.45%

Query string: Report hERG current change (%, negative = inhibition) at 10uM, nothing else, for this compound: CN(CC(=O)Nc1cccc(F)c1)C(=O)CCC1CCCCC1
Result string: 17.7%

Query string: Please report the measured hERG current change (%, negative = inhibition) at 10uM for CC(C)CC(=O)N1CCN(Cc2ccccc2[N+](=O)[O-])CC1.O=C(O)C(=O)O
Result string: -7.35%

Query string: Let me know recorded hERG current change (%, negative = inhibition) at 10uM for CCn1c(Cc2ccccc2)nnc1SCC(=O)Nc1ccccc1F , thanks.
Result string: -5.46%

Query string: Retrieve hERG current change (%, negative = inhibition) at 10uM measured for O=C(NNC(=S)NC(=O)C12CC3CC(CC(C3)C1)C2)c1ccncc1 and print it.
Result string: 19.8%

Query string: Tell us which hERG current change (%, negative = inhibition) at 10uM value is on record for Cc1c(Cc2ccccc2)c(NCCN(C)C)n2c(nc3ccccc32)c1C#N
Result string: -32.4%

Query string: For the compound CCC1(CC)C(=O)C2=C3C1[C@H](C(=O)OC)C=C(C(=O)OC)C[C@H]3[C@H]1C(=O)NC(=O)[C@H]1[C@H]2C (some centres unmarked) , give its measured hERG current change (%, negative = inhibition) at 10uM value.
Result string: 3.57%
